STUDY TARGET: A/Duck/Sing-Q/97 (H5N3) inactivated viral preparation (Influenza A virus A/Duck/Sing-Q/97 (H5N3))
PROTOCOL DESCRIPTION: ELISA, inactivated virus
RECORDED ENDPOINT: EC50 (µg/mL)

BINDER	RESULT UNIT	OBSERVED MEASUREMENT
R2a-G8 (VHH) VHH: QLQLAESGGGLVQAGGSLRLSCAASGSTLNNNAIGWFRQAPGKEREGVSCMNSRDGTTNYADSVKGRFTISRDVAKNTVYLQMNSLKPEDTAVYFCAVKGFAPFLIGCPWGKAEYDYWGQGTQVTVSS	µg/mL	9.67
R1a-B6 (VHH) VHH: QVQLVESGGGLVQPGGSLRLSCAASGSFFSRYRMGWYRQAPGEQRELVASIAYDGSTSYADPVKGRFTISRDNANTVHLQMYSLKPDDTAVYYCNLDPPGILYWGQGTQVTVSS	µg/mL	1.32
R2b-E8 (VHH) VHH: QVQLVESGGGLVQPGGSLRLSCAASGSFFSRYRMGWYRQAPGEQRELVAGITYDDSTNYAGSVKGRFTISRDNAKNTVHLQMNSLKPEDTAVYYCNLNPPGNLYWGQGTQVTVSS	µg/mL	4.98
R1a-C5 (VHH) VHH: QVQLVESGGGLVQPGGSLRLSCAASNDIFSFYTMGWYLQAIGKQREPVAVIGNGGNTNYAESVKGRFTISRDGAKNTAYLQMNSLKPEDTAVYYCMASGPGGLNVWGQGTQVTVSS	µg/mL	7.57
R2b-D9 (VHH) VHH: QVQLVESGGGLVQPGGSLRLSCLASGSAFSLYTMGWYRQAPGNQRELVAAITSGESTNYADSVKGRFTISRDNAKNTVYLQMNSLKPEDTAVYYCNADPLSTGWGQYSYWGQGTQVTVSS	µg/mL	5.64
R1a-A5 (VHH) VHH: QVQLVESGGGLVQPGGSLRLSCSASGSAVLFSTYPMSWYRQAPGKQRELVAAVTTDGSTSYADYAKGRFTISRDNAKNTVYLQMNSLKPEDTAVYYCNARDGFFNRYDYWGQGTQVTVSS	µg/mL	0.27
